Entries and their measured IC50 follow.
- system.under.test: G12V-mutant human KRAS (amino acid residues 1-188) (Homo sapiens, UniProt P01116, G12V)
- Construct: G12V-mutant human KRAS (amino acid residues 1-188) with FLAG tag was purified from E. coli; made in house; host or cells: E. coli
- experiment: KRAS Binding Competition Assay (AlphaScreen; biotinylated KRpep-2d analogue), G12V
- assay.context: geometric mean, read-out: KRAS GMean IC50 (uM) MUTATION: G12V

Sample records with IC50:
compound | system.under.test | measured.property | observed.measurement
Cc1c(N)cccc1-c1ccc2c(N3C[C@H]4CC[C@@H](C3)N4)nc(OC[C@@H]3CCCN3C)nc2c1 | G12V-mutant human KRAS (amino acid residues 1-188) (Homo sapiens, UniProt P01116, G12V) | IC50 | 10 to 100 µM
O=C(CCCN1CCCCC1)N1[C@@H]2CC[C@H]1CN(c1nc(OCC34CCCN3CCC4)nc3c(F)c(-c4cc(O)cc5ccccc45)ccc13)C2 | G12V-mutant human KRAS (amino acid residues 1-188) (Homo sapiens, UniProt P01116, G12V) | IC50 | 0.0001 to 10 µM

Task: // query IC50 value for entry CN1CCC[C@H]1COc1nc(N2C[C@H]3CC[C@@H](C2)N3C(=O)c2n[nH]c(=O)[nH]2)c2ccc(-c3cc(O)cc4ccccc34)c(F)c2n1
Output: 0.0001 to 10 µM

Task: // query IC50 value for entry Cc1ccnc(-c2ccc3c(N4[C@@H]5CC[C@H]4CNC5)nc(OC[C@@H]4CCCN4C)nc3c2)c1C
Output: 100 to 1000 µM

Task: // query IC50 value for entry CN1CCC[C@H]1COc1nc(N2[C@@H]3CC[C@H]2CN(CC(=O)N2CCOCC2)C3)c2ccc(-c3cc(O)cc4ccccc34)cc2n1
Output: 10 to 100 µM

Task: // query IC50 value for entry CN1CCC[C@H]1COc1nc(N2C[C@H]3CC[C@@H](C2)N3C(=O)CC2SC(N)=NC2=O)c2ccc(-c3cc(O)cc4ccccc34)cc2n1 (stereo partly shown)
Output: 0.0001 to 10 µM

Task: // query IC50 value for entry CN1CCC[C@H]1COc1nc(N2C[C@H]3CC[C@@H](C2)N3)c2ccc(-c3cnc(N)nc3C(F)(F)F)cc2n1
Output: 100 to 1000 µM

Task: // query IC50 value for entry CN1CCC[C@H]1COc1nc(N2C[C@H]3CC[C@@H](C2)N3)c2ccc(-c3cccc4[nH]ncc34)cc2n1
Output: 100 to 1000 µM

Task: // query IC50 value for entry Oc1cc(-c2c(Cl)cc3c(N4C[C@H]5CC[C@@H](C4)N5)nc(OCC45CCCN4CCC5)nc3c2F)c2ccccc2c1
Output: 0.0001 to 10 µM

Task: // query IC50 value for entry O=C(Cc1c[nH]c(=O)[nH]c1=O)N1[C@@H]2CC[C@H]1CN(c1nc(OCC34CCCN3CCC4)nc3c(F)c(-c4cc(O)cc5ccccc45)ccc13)C2
Output: 0.0001 to 10 µM
